Tested on: EfPiwi piRISC loaded with L1MC piRNA (26 nt)
Assay: pre-steady-state target cleavage rate (min^-1); auxiliary factor: 500 nM Ephydatia muelleri Gtsf1; guide: L1MC piRNA 5'p-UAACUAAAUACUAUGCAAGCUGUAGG; higher = faster piRNA-guided slicing of the target
// label = t if pre-steady-state target cleavage rate is not less than 0.005, otherwise f

sequenceCode | categoryLabel
UCCUCCAUCAGCUUGCAUAGUAUUUACAAA | f
UCCUCCUACAGCUUGCAAAGUUUUUAGUUA | f
UCCUGGAACAGCUUGCAUAGUUUUUAGUUA | t
UCCUGGAUGAGCUUGCAUAGUAUUUAUUUA | f
UCCUCCUACAGCUUGCAUAGUAUUAUCAAA | f
UCCUCCAACAGCUUGCAUACUAUUUAGUUA | t
UCCUCCUACAGCUUGCAAAGUAUUUAGAAA | f
UCCUGCUAGAGCUUGCAAAGUAUUUAGUUA | t
UCCUGGAACACGUUGCAUAGUAUUUAGUAA | f
UCCUCCUUCAGCUUGCAUAGUAUUUAGAUA | f
UCCUCCUAGAGCAUGCAUAGUAUUUAGUUA | t
UCCUCCUACACCUUGCAUAGUAUUUUGUUA | f
UCCUGGUACAGCUUGCGUAGUAUUUAGUUA | t

---

Tested on: MILI (PIWIL2) piRISC loaded with L1MC piRNA (26 nt);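 also: 1 nM active piRISC with 0.1 nM target library at 33 °C single turnover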
Experiment: pre-steady-state target cleavage rate (min^-1); guide: L1MC piRNA 5'p-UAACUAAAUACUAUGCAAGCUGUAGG; higher = faster piRNA-guided slicing of the target
Settings: auxiliary factor: 500 nM mouse GTSF1

sequenceCode | pre-steady-state target cleavage rate
UCCUGGAUGUCCUUGCAUAGUCUUUAGUUA | 0.0269
UCCUGGAACAGCUUGCAAAGUAAUUAGUUA | 0.131
UCCUGGAACAGCUUGACAUAGUAUUUAGUUA | 0.213
UCCUCCUACAGCUUGCUUAGUAUUUAGUAA | 0.203
UCCUCCUACAGCUUGCAUAGUAAUUUAGUUA | 0.199
UCCUCCUACAGGAUGCAUAGUAUUUACAAA | 0.0521
UCCUGCUACAGCUUGCAUAGUUUUUAGUUA | 0.0767
UCCUCCUUGAGCUUGCAUAGUAUUUACAAA | 0.0856
UCCUGCUACUGCUAGCAUAGUAUUUAGUUA | 0.253
UCCUGGAUGUCGAAGCAUAGUAUUUUAGUUA | 0.0433
UCCUGGUACAGCUUGCAUAGUAUUUAGUCA | 0.159
UCCUGCUACAGCUUGCAUACUAUUAAGUUA | 0.0719
UCCUGGAUGAGGCUUGCAUAGUAUUUAGUUA | 0.186
UCCUGCUACACGAUGCAUAGUAUUUAGAAA | 0.183
UCCUCCUACAGCUUGCAUAGUUUUUAGAUA | 0.0768
UCCUGCUACAGCUUGCAUAAGUAUUUAGUUA | 0.0171
UCCUGGAACAGCUUGCAUACUAUUUUCAAA | 0.0161
UCCUGCUACCAGCUUGCAUAGUAUUUAGUUA | 0.24
UCCUGGAUGUCGAUGCAUGGUAUUUAGUUA | 0.0229
UCCUGGUACAGGUUGCAUAGUAUUUUGUUA | 0.189
UCCUGGUACAGCUACGAUAGUAUUUAGUUA | 0.15
UCCUGGAUGUGCUUGCAUAGUACUUUAGUUA | 0.0231
UCCUCCUACAGCUUACAUAGUAUUUAGUUA | 0.276
UCCUCCUACAGCUUGCAUACAUUUUAGUUA | 0.00509
UCCUGGAUGUCCUUGGAUAGUAUUUAGAUA | 0.129
UCCUGCUACACUUGCAUAGUAUUUAGUUA | 0.268
UCCUGCUACAGGUUGCAUAGUAUUUUCAAA | 0.0101
UCCUCCUACAGCUAGCAUAGUAUUUUCAAA | 0.137

---

Test system: MILI (PIWIL2) piRISC loaded with L1MC piRNA (26 nt);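 also: 1 nM active piRISC with 0.1 nM target library at 33 °C single turnover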
Experiment: pre-steady-state target cleavage rate (min^-1); guide: L1MC piRNA 5'p-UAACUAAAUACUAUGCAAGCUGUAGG; higher = faster piRNA-guided slicing of the target
Details: auxiliary factor: none (no GTSF1)
endpointName: pre-steady-state target cleavage rate

sequenceCode | targetOfAssay | endpointName | inequalitySymbol | quantitativeResult
UCCUCCUACAGCUUGCAUAGUAUUUCGUUA | MILI (PIWIL2) piRISC loaded with L1MC piRNA (26 nt) | pre-steady-state target cleavage rate | = | 0.0033
UCCUGGAACAGGAUGCAUAGUAUUUAGUUA | MILI (PIWIL2) piRISC loaded with L1MC piRNA (26 nt) | pre-steady-state target cleavage rate | = | 0.0116
UCCUGGAUGUCGAACGUAUGUAUUUCAGUUA | MILI (PIWIL2) piRISC loaded with L1MC piRNA (26 nt) | pre-steady-state target cleavage rate | < | 0.0001
UCCUCCUACAGGUUGCAUAGUAUUAAGUUA | MILI (PIWIL2) piRISC loaded with L1MC piRNA (26 nt) | pre-steady-state target cleavage rate | = | 0.00545
UCCUGCUACAGGAAGCAUAGUAUUUAGUAA | MILI (PIWIL2) piRISC loaded with L1MC piRNA (26 nt) | pre-steady-state target cleavage rate | = | 0.00762
UCCUCCUACAGCUUGCAUAGUAAUUUAGUUA | MILI (PIWIL2) piRISC loaded with L1MC piRNA (26 nt) | pre-steady-state target cleavage rate | = | 0.00674
UCCUGGAUGUGCUUGGUAAGUAUUUAGUUA | MILI (PIWIL2) piRISC loaded with L1MC piRNA (26 nt) | pre-steady-state target cleavage rate | = | 0.00551

---

System: MILI (PIWIL2) piRISC loaded with L1MC piRNA (26 nt);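 also: 1 nM active piRISC with 0.1 nM target library at 33 °C single turnover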
Test: pre-steady-state target cleavage rate (min^-1); guide: L1MC piRNA 5'p-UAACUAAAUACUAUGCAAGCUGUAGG; higher = faster piRNA-guided slicing of the target
Settings: auxiliary factor: 500 nM mouse GTSF1
Examples of sequences with documented pre-steady-state target cleavage rate follow.

sequenceCode | pre-steady-state target cleavage rate
UCCUGGAUGUCGUUGCAAAGUAUUUAGUAA | 0.0183
UCCUGGAUGUCGAAGCAUAGUAUUAUGUUA | 0.00859
UCCUGGAACAGCUUGCAAUCUAUUUAGUUA | 0.0258
UCCUGCAACAGCUUGCAUAGAAUUUAGUUA | 0.0925
UCCUGGAUGUGCUUGCAUAGUAUUUAGUUUA | 0.141
UCCUCCUACAGCUUGCAAAGUAUUUAGAUA | 0.0875
UCCUGCUUCAGCUUGCUUAGUAUUUAGUUA | 0.287
UCCUCCUACAGCUUGCAUAGUAUUUAGUGA | 0.186
UCCUCCUUCAGCUUGCAUAGUAAUUAGUUA | 0.211
UCCUGCUACAGGUUGCAUAGUAUUUUGUUA | 0.165
UCCUGGAACAGCUUAGCAUAGUAUUUAGUUA | 0.27
UCCUGGAUCAGCUUGCAUAUAUUUAGUUA | 0.0263
UCCUGCAACAGCUUGCUUAGUAUUUAGUUA | 0.293

---

System: EfPiwi piRISC loaded with piRNA #1 (26 nt)
Assay: pre-steady-state target cleavage rate (min^-1); auxiliary factor: 500 nM Ephydatia muelleri Gtsf1; guide: piRNA #1 5'p-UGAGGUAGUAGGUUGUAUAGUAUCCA; MIWI and MILI are mouse PIWI proteins and EfPiwi is from a freshwater sponge; tags in brackets are library labels; higher = faster piRNA-guided slicing of the target
// label = T if pre-steady-state target cleavage rate is not less than 0.005, otherwise F

sequenceCode | categoryLabel
GGAGACCUAUGAUAUGUACCUACUAUCCUCA | F
GGAGAGGAUAGUAUACAACCUACUACGUCA | F
GGAGACCUUACUAUAACAACCUACUACCUCA | T
GGAGACCAUACUAUACAACCUUCUACCUCA | T
GGAGACCUAUCUAUACAACCCACUACCUCA | F
GGAGACCUAUGAAUAGAACCUUCUACCUCA | F
GGAGACCAUACUAUACUACCUACUUCCUCA | F
GGAGAGGAUACUAUACAACCUACUACCACA | T
GGAGAGGAUACUAUAGAAGCUACUACCUCA | F
GGAGAGGAUACUAUACAACGUACUUCCUCA | F
GGAGACCUUACUAUACCAACCUACUACCUCA | F
GGAGACCUAUCUAUACCAACCUACUACCUCA | T
GGAGACGAAUGUAUACAACCUACUACCUCA | T
